# EXPERIMENTAL_PROTOCOL: viability of PTEN-null HCT116 cells – cell-based, HCT116 clonal line, CellTiter-Glo, pilot screen (AID 824);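 also: 0% = 20 µM Hyamine control and 100% = vehicle cell control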
# RUN_CONDITIONS: HCT116 PTEN-deleted viability, 60 h, at 10 µM, active compounds read low
Results filed as inconclusive are left out.
Label Y when viability < 80%; otherwise N.

Illustrative cases are given below, each with its answer.
INSERT INTO assay_data (molecule, answer_label) VALUES
  ('CCN1CCN(c2cc(=O)n(C3CCCCC3)c(=O)[nH]2)CC1', 'N'),
  ('CC1=C(C(=O)OC2CCCCC2)C(c2ccco2)C2=C(CC(C)(C)CC2=O)N1 (stereo not given)', 'Y'),
  ('CCOC(=O)C1=C(CS(=O)(=O)c2ccc(F)c(C)c2)NC(=O)NC1c1ccc(O)c(O)c1 (stereo not given)', 'N'),
  ('CCN(CC)C(=O)CCCOc1ccc(Cl)cc1Cl', 'N');

Field: next molecule
Is viability strictly under 80% for the entry COc1cccc(C2CC(c3c(Cl)cccc3Cl)n3nc(N)nc3N2)c1 (stereo not given) ?
N

###

# TEST_TARGET: Receptor tyrosine-protein kinase erbB-2 (Homo sapiens)
# EXPERIMENTAL_PROTOCOL: Her2 expression decrease, cell viability multiplex – SKBR3 breast tumor cells, AlphaScreen, ATP viability, primary screen (AID 461);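 also: lower value means less Her2 protein in the cells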
# RUN_CONDITIONS: 18-24 h, at 10 µM, active compounds read low
RECORDED_ENDPOINT: Her2 level (%)
Give the value, in units of %, as a plain number.

Here is how some compounds turned out for Her2 level.
INSERT INTO results (compound, recorded_result) VALUES
  ('CCCCOC(=O)c1[nH]c2c(c1C)C(=O)CC(c1cc(OC)c(OC)c(OC)c1)C2 (stereo not drawn)', 74.5),
  ('CCOC(=O)CCCOC(=O)c1ccc(S(=O)(=O)N(C)C)cc1', 84.5),
  ('CC1=C(C(=O)OC(C)C)C(c2ccccn2)n2ncnc2N1 (stereo not drawn)', 113),
  ('CCSc1nc2c(c(=O)[nH]1)C(c1cccnc1)C(C(=O)OC(C)C)=C(C)N2 (stereo not drawn)', 83.5),
  ('O=C(c1ccc(=O)[nH]c1)N(Cc1ccco1)C1(C(=O)NC2CCCC2)CCCCC1', 99.5),
  ('O=C(NCC1CCCO1)C1CCN(S(=O)(=O)c2cccc3cccnc23)CC1 (stereo not drawn)', 93.5),
  ('COc1ccccc1S(=O)(=O)Cc1ccc(C(=O)N2CCN(c3ccccn3)CC2)o1', 84.5),
  ('COc1ccc(N2CCN(C(=O)C(C)(C)Oc3ccc(Cl)cc3)CC2)cc1', 91.5);

# get_value(readout='Her2 level', item= `Cc1nc2ccc(C(=O)c3ccccc3)cc2[nH]1` )
82

# get_value(readout='Her2 level', item= `CCOC(=O)N1CCN(C(=O)c2ccc(CS(=O)(=O)c3ccc(OC)cc3)o2)CC1` )
88

# get_value(readout='Her2 level', item= `CCCCN(CC)CCCNC(=O)c1cc2c(=O)n(C)c3ccccc3c2n1C` )
77

# get_value(readout='Her2 level', item= `O=C(c1cc2ccccc2oc1=O)N1CCN(c2ccc(N3CCOCC3)nn2)CC1` )
118

# get_value(readout='Her2 level', item= `C=CCSc1nnc(-c2cccnc2)o1` )
99.5

###

# EXPERIMENTAL_PROTOCOL: yeast transport mutant growth inhibition pilot in 384-well plates, post-Golgi transport modulator project (AID 636)
# RUN_CONDITIONS: absorbance 615 nm, about 18 h, active compounds read high
RECORDED_ENDPOINT: inhibition (%)
Give the value, in units of %, as a plain number.

Here is how some compounds turned out for inhibition.
INSERT INTO assay_data (compound, recorded_result) VALUES
  ('CC1CC(C)CN(Cc2nc3c(c(=O)n(C)c(=O)n3C)n2Cc2ccccc2Cl)C1 (stereo unspecified)', -3.2),
  ('CC1(C)CC(=O)c2cnc(NC(=O)Cc3ccc(Cl)cc3)nc2C1', -9.46),
  ('Cn1c(NC(=O)c2ccccc2NC(=O)C(C)(C)C)nc2ccccc21', -1.73),
  ('CC1CCCCN1S(=O)(=O)c1ccc(NC(=O)c2cccs2)cc1 (stereo unspecified)', -1.17),
  ('COc1ccc(OC)c(C2=NOC(C(=O)Nc3c(C)n(C)n(-c4ccccc4)c3=O)C2)c1 (stereo unspecified)', -2.93),
  ('CC1(C)NC(=O)N(CC(O)COc2cccc(F)c2)C1=O (stereo unspecified)', 3.73),
  ('O=C(CSc1nc(-c2ccco2)cc(C(F)(F)F)n1)NCCCn1ccnc1', -2.53),
  ('O=C(Nc1ccc(CN2CCOCC2)cc1)c1cc2ccccn2n1', 0.38),
  ('CCOC(=O)C1CCN(Cc2ccc(OC)c(C)c2OC)CC1', -2.4),
  ('CCOc1ccc(Cn2nnc(C(=O)NCc3ccc(OC)cc3)c2N)cc1', -4.67);

Proceed to the following item.
# get_value(readout='inhibition', item= `CCOc1ccc(NC(=O)CCN2CCN(c3ccccc3)CC2)cc1` )
-0.9

###

Entries and their measured inhibition follow.
# EXPERIMENTAL_PROTOCOL: growth suppression of yeast trafficking mutant, preliminary HTS, modulators of trafficking downstream of Golgi apparatus project, 1536-format plate, OD 615 nm (AID 637)
# RUN_CONDITIONS: yeast transport mutant growth, absorbance 615 nm, 18 h; active compounds read high
Give the value, in units of %, as a plain number.

# get_value(readout='inhibition', item= O=C(O)C1C2C=CC3(CN(C4CCCC4)C(=O)C13)O2 (configuration not stated) )
-4.83

# get_value(readout='inhibition', item= CC1CCCN(S(=O)(=O)c2coc(C(N)=O)c2)C1 (configuration not stated) )
1

# get_value(readout='inhibition', item= `Cc1cc(NC(=O)COc2cccc(C)c2C)no1` )
-4.26

# get_value(readout='inhibition', item= `COc1ccccc1NC(=O)N(C1CCCC1)C1CCN(C(C)=O)CC1` )
-8.83

# get_value(readout='inhibition', item= `CCN(CC)CCn1c(=N)n(CCO)c2ccccc21` )
2.33

# get_value(readout='inhibition', item= `O=C(Nc1nc(-c2ccccn2)cs1)C1CC1` )
-3.17

# get_value(readout='inhibition', item= `COc1ccc(N(CC(=O)O)S(=O)(=O)c2ccc(OC)c(OC)c2)cc1` )
1.31

# get_value(readout='inhibition', item= CCn1cc(C(=O)NCC2CCCO2)c(=O)c2cc(S(=O)(=O)N(C)C)ccc21 (configuration not stated) )
-3.83

# get_value(readout='inhibition', item= `COCCn1c(=O)[nH]c2cc(C(=O)N3CCN(c4ccccc4OC)CC3)ccc2c1=O` )
0.32

###

Entries and their measured differential viability (reversal) follow.
# EXPERIMENTAL_PROTOCOL: MRP1 drug-resistance reversers in H69AR cells – cell-based, doxorubicin co-treatment, pilot screen (AID 601)
# RUN_CONDITIONS: H69AR cells + 2 uM doxorubicin, CellTiter-Glo, 72 h; at 10 µM; active compounds read high
Give the value, in units of %, as a plain number.

Here is how some compounds turned out for differential viability (reversal).
INSERT INTO results (compound, unit_name, recorded_result) VALUES
  ('CC1CCCCC1NC(=O)Cn1ncc2ccccc21 (stereo unspecified)', '%', 4.98),
  ('O=C(NCc1ccccc1)C1CCN(S(=O)(=O)c2cccc3cccnc23)CC1', '%', 2.76),
  ('Cc1ccc(S(=O)(=O)N2CCOCC2)cc1C(=O)Nc1nc(-c2cccnc2)cs1', '%', 9),
  ('COc1ccc(S(=O)(=O)N2CCCC2C(=O)Nc2ccc(O)cc2)cc1 (stereo unspecified)', '%', 3.97),
  ('COc1ccccc1N1CCN(C(=O)c2cc(C3CC3)on2)CC1', '%', -6.73),
  ('O=C(NCCCN1CCOCC1)c1ccc(CS(=O)(=O)c2c(Cl)cccc2Cl)o1', '%', -2.01),
  ('COc1ccc2c(c1OC)C(=O)OC2CC(=O)c1ccc(O)cc1 (stereo unspecified)', '%', -3.06),
  ('CCCCOCCCNC(=O)COc1ccccc1', '%', -2.32);

# get_value(readout='differential viability (reversal)', item= CC(NC(=O)C1CC1)C(c1cccs1)N1CCN(c2ccccc2)CC1 (stereo unspecified) )
-4.32

# get_value(readout='differential viability (reversal)', item= `COCCNC(=O)CN1CCN(Cc2cccc(Cl)c2)C1=O` )
17.5

# get_value(readout='differential viability (reversal)', item= `COc1ccc(NC(=O)CN(c2cc(C)cc(C)c2)S(=O)(=O)c2c(C)noc2C)cc1OC` )
14.6

###

# EXPERIMENTAL_PROTOCOL: S. cerevisiae growth inhibition in permissive medium (OD615), pilot counter-assay for S. cerevisiae lifespan shortening project, permissive growth control (AID 705)
# RUN_CONDITIONS: OD615, 24 h, at 10 µM, active compounds read high
RECORDED_ENDPOINT: growth inhibition (%)
Give the value, in units of %, as a plain number.

Here is how some compounds turned out for growth inhibition.
INSERT INTO measurements (compound, unit_name, recorded_result) VALUES
  ('Cc1ccc(-c2cc(C(F)F)nc(NCc3cccnc3)n2)cc1', '%', 4.57),
  ('C=CCn1c(SC(C)C(=O)NC2(C#N)CCCCC2)nnc1-c1ccc(OC)cc1 (stereo not given)', '%', -4.51),
  ('CCCCn1c(=NC(=O)c2cccnc2)c(C(=O)OCC)cc2c(=O)n3ccccc3nc21', '%', -19.8),
  ('Cn1c(NC(=O)c2ccccc2NC(=O)C(C)(C)C)nc2ccccc21', '%', 3.42),
  ('Cc1cc(C)c2c(=O)n(CC(=O)NCCCN3CCN(c4ccccc4F)CC3)sc2n1', '%', 16.2),
  ('CC1CCc2nn(CC(=O)N3CCN(C(=O)c4ccco4)CC3)cc2C1 (stereo not given)', '%', -0.485);

# get_value(readout='growth inhibition', item= `COc1ccc(CNC(=O)c2nnn(Cc3ccc(OC)cc3)c2N)cc1` )
-3.35

# get_value(readout='growth inhibition', item= `C=CCn1c(SCC(=O)N2CCN(c3ccc(F)cc3)CC2)nnc1-c1ccco1` )
3.6

# get_value(readout='growth inhibition', item= `CC(=O)N1CCc2cc(C(=O)CN3CCCN(Cc4ccc(F)cc4)C3)ccc21` )
4.55

# get_value(readout='growth inhibition', item= O=S(=O)(NCC(O)COCc1ccco1)c1cccs1 (stereo not given) )
-10.3

# get_value(readout='growth inhibition', item= `CCS(=O)(=O)c1nc2ccccc2n1Cc1ccccc1Cl` )
-25.4

# get_value(readout='growth inhibition', item= `CCOc1cc(-c2nc(-c3ccc(OC)cc3)no2)cc(OCC)c1OCC` )
-4.43

# get_value(readout='growth inhibition', item= `CC(=O)NCCc1nc2ccccc2[nH]1` )
-3.03

# get_value(readout='growth inhibition', item= `O=C(Nc1cccc(Cl)c1)N1CCN(Cc2ccccc2)CC1` )
-4.47

# get_value(readout='growth inhibition', item= `Cc1cccc(Cc2c(C)nc3nc(SCC(=O)NCc4ccco4)nn3c2C)c1` )
2.65

Ref: PubChem BioAssay
